Some compounds, each annotated with its measured Activity.
Organism: Rattus norvegicus
Test: Vasopressor activity in rat
Assay type: ADME, organism-based
Conditions: in vivo
Starred links: 1 amine or outer side, 2 acyl side, 3 side chain; linkers in the order of their positions; H or OH if unused. Positions of bridges follow the written chain, without caps; N, C: chain ends. Residues, ends and D or L forms follow the SMILES beside them. X1 = O=C([C@H](O)CS[*:2])[*:1]

{"compound": "CC[C@H](C)[C@@H]1NC(=O)[C@H](Cc2ccc(O)cc2)NC(=O)[C@@H](N)CSSC[C@@H](C(=O)NCC(=O)N[C@@H](CC(C)C)C(=O)NCC(N)=O)NC(=O)[C@H](CC(N)=O)NC(=O)[C@H]([C@@H](C)O)NC1=O (H-CYITNCGLG-NH2; disulfide 1-6)", "Activity": "< 0.01 U/mg"}
{"compound": "CC[C@H](C)[C@@H]1NC(=O)[C@H](Cc2ccc(O)cc2)NC(=O)[C@H](O)CSSC[C@@H](C(=O)NCC(=O)N[C@@H](CC(C)C)C(=O)NCC(N)=O)NC(=O)[C@H](CC(N)=O)NC(=O)[C@H]([C@@H](C)O)NC1=O (YITNCGLG-NH2; linker N-5 via X1)", "Activity": "< 0.01 U/mg"}
{"compound": "CC[C@H](C)[C@@H]1NC(=O)[C@H](Cc2ccc(O)cc2)NC(=O)[C@@H](N)CSSC[C@@H](C(=O)NCC(=O)N[C@@H](CC(C)C)C(=O)NCC(N)=O)NC(=O)[C@H](CC(N)=O)NC(=O)[C@H](CCC(N)=O)NC1=O (H-CYIQNCGLG-NH2; disulfide 1-6)", "Activity": "< 0.01 U/mg"}

The reported measurements were obtained from ChEMBL document CHEMBL3244056.
